Tested on: MDA−MB−231 cells
Test protocol: Western blot protein expression
Assay type: cell-based
Condition label: MDA−MB−231, IC50, 72 h, representative blot Figure S27F
Readout: LC3B/GAPDH normalized to control (1)

1) N.N.[Cl][Pt][Cl] [Cisplatin, cisplatin]	1.368
2) Cc1c(C)c2cccnc2c2ncccc12.N[C@H]1CCCC[C@@H]1N.O=[N+]([O-])[O-].O=[N+]([O-])[O-].[OH][Pt+2][OH] [Pt^IV56MESS(OH)2]	0.7501
3) N[C@H]1CCCC[C@@H]1N.O=[N+]([O-])[O-].O=[N+]([O-])[O-].[Pt+2].c1cnc2c(c1)ccc1cccnc12	0.9969
4) Cc1cc2cccnc2c2ncccc12.N[C@H]1CCCC[C@@H]1N.O=[N+]([O-])[O-].O=[N+]([O-])[O-].[Pt+2] [Pt^II5MESS]	0.9366
5) Cc1c(C)c2cccnc2c2ncccc12.N[C@H]1CCCC[C@@H]1N.O=[N+]([O-])[O-].O=[N+]([O-])[O-].[Pt+2] [Pt^II56MESS]	0.8478
6) Cc1cc2cccnc2c2ncccc12.N[C@H]1CCCC[C@@H]1N.O=[N+]([O-])[O-].O=[N+]([O-])[O-].[OH][Pt+2][OH] [Pt^IV5MESS(OH)2]	0.6059
7) N[C@H]1CCCC[C@@H]1N.O=[N+]([O-])[O-].O=[N+]([O-])[O-].[OH-].[OH-].[Pt+4].c1cnc2c(c1)ccc1cccnc12	0.6076

---

Test system: MDA−MB−231 cells
Test protocol: Cellular uptake of Pt by ICP-MS
Format: cell-based
Condition label: MDA−MB−231, 3 µM, 1 h
Criterion: Intracellular Concentration strictly less than 0.2 nmol/10^6 cells. Met: rule met. Not met: rule not met.

1. N.N.[Cl][Pt][Cl] [Cisplatin, cisplatin]	rule met
2. N[C@H]1CCCC[C@@H]1N.O=[N+]([O-])[O-].O=[N+]([O-])[O-].[OH-].[OH-].[Pt+4].c1cnc2c(c1)ccc1cccnc12	rule not met
3. Cc1c(C)c2cccnc2c2ncccc12.N[C@H]1CCCC[C@@H]1N.O=[N+]([O-])[O-].O=[N+]([O-])[O-].[Pt+2]	rule not met
4. N[C@H]1CCCC[C@@H]1N.O=[N+]([O-])[O-].O=[N+]([O-])[O-].[Pt+2].c1cnc2c(c1)ccc1cccnc12	rule not met
5. Cc1c(C)c2cccnc2c2ncccc12.N[C@H]1CCCC[C@@H]1N.O=[N+]([O-])[O-].O=[N+]([O-])[O-].[OH][Pt+2][OH]	rule met
6. Cc1cc2cccnc2c2ncccc12.N[C@H]1CCCC[C@@H]1N.O=[N+]([O-])[O-].O=[N+]([O-])[O-].[Pt+2]	rule not met
7. Cc1cc2cccnc2c2ncccc12.N[C@H]1CCCC[C@@H]1N.O=[N+]([O-])[O-].O=[N+]([O-])[O-].[OH][Pt+2][OH]	rule met

---

The compounds listed here are annotated with their Intracellular/extracellular ratio.
Tested on: HT29 cells
Test protocol: Cellular uptake of Pt by ICP-MS
Format: cell-based
Condition label: HT29, extracellular 3 µM, 0.5 h
Readout: Intracellular/extracellular ratio

1) Cc1c(C)c2cccnc2c2ncccc12.N[C@H]1CCCC[C@@H]1N.O=[N+]([O-])[O-].O=[N+]([O-])[O-].[OH][Pt+2][OH] [Pt^IV56MESS(OH)2]	28.52
2) Cc1cc2cccnc2c2ncccc12.N[C@H]1CCCC[C@@H]1N.O=[N+]([O-])[O-].O=[N+]([O-])[O-].[OH][Pt+2][OH] [Pt^IV5MESS(OH)2]	26.29
3) N[C@H]1CCCC[C@@H]1N.O=[N+]([O-])[O-].O=[N+]([O-])[O-].[Pt+2].c1cnc2c(c1)ccc1cccnc12	133.55
4) N[C@H]1CCCC[C@@H]1N.O=[N+]([O-])[O-].O=[N+]([O-])[O-].[OH-].[OH-].[Pt+4].c1cnc2c(c1)ccc1cccnc12	15.93
5) Cc1c(C)c2cccnc2c2ncccc12.N[C@H]1CCCC[C@@H]1N.O=[N+]([O-])[O-].O=[N+]([O-])[O-].[Pt+2] [Pt^II56MESS]	136.74
6) Cc1cc2cccnc2c2ncccc12.N[C@H]1CCCC[C@@H]1N.O=[N+]([O-])[O-].O=[N+]([O-])[O-].[Pt+2] [Pt^II5MESS]	125.00
